- Assayed Target: Endothelin-1 receptor (Rattus norvegicus)
- Sequence (P26684 whole entry): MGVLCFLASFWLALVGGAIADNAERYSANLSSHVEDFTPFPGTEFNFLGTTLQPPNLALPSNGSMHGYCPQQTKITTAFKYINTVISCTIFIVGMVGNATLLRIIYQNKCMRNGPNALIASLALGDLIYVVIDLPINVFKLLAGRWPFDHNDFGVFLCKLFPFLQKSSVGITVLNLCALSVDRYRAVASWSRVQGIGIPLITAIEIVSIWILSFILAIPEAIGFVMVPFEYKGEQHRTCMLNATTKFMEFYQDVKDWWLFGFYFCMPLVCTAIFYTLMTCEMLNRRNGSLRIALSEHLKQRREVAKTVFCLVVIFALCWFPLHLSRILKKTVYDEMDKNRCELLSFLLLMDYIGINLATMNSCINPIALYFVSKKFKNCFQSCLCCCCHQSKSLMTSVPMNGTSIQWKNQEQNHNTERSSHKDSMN
- Measurement Description: Binding affinity for endothelin A receptor by inhibition of [125I]ET1 binding in rat aorta smooth muscle cells
Readout Kind: log10 of IC50 (log10 of the value in nM)
Hey, these are logged values: log10 of IC50, nM being the unit before logging.

- Compound: "COc1ccc(C2=C(C(=O)O)C(c3ccc4c(c3)OCO4)Oc3ccc(C(C)C)cc32)cc1 (centres undefined)"
  log10 of IC50: 2.04

q: Request the reported log10 of IC50 associated with CCCCOC1=C(C(=O)O)C(c2ccc3c(c2)OCO3)Oc2ccc(OC)cc21 (centres undefined)
a: 2.40

q: I am curious: what log10 of IC50 value has been reported for O=C(O)C1=C(c2ccc(Cl)cc2)c2ccccc2OC1c1ccc2c(c1)OCO2 (centres undefined) ?
a: 2.90

q: What measured log10 of IC50 goes with COc1ccc([C@@H]2c3cc(OC(C)C)ccc3O[C@H](c3ccc4c(c3)OCO4)[C@H]2C(=O)O)cc1 ?
a: 0.11

q: Request the reported log10 of IC50 associated with CCCCOc1ccc2c(c1)C(c1ccc3c(c1)OCO3)=C(C(=O)O)C(c1ccc(OC)cc1OC)O2 (centres undefined)
a: 1.26

q: Reported log10 of IC50 for CCCCOC1=C(C(=O)O)C(c2ccc3c(c2)OCO3)Oc2ccc(OCCC)cc21 (centres undefined) : what is it?
a: 0.30

q: Field request: log10 of IC50 | item: CCCOC1=C(C(=O)O)C(c2ccc3c(c2)OCO3)Oc2ccccc21 (centres undefined)
a: 2.20

q: For the compound CCCCOc1ccc2c(c1)C(c1ccc(OC)cc1)=C(C(=O)O)C(c1ccc3c(c1)OCO3)O2 (centres undefined) , what log10 of IC50 is on record?
a: 1.23

q: Form field: reported log10 of IC50 of CCCOc1ccc2c(c1)OC(c1ccc3c(c1)OCO3)C(C(=O)O)=C2c1ccc(OC)cc1 (centres undefined)
a: 2.99
